Dear all, this message contains pKi results, target or system histamine-3 receptor (Rattus norvegicus, UniProt Q9QYN8).
pKi: −log10 of the molar value.
Assay Metric: pKi

Example entries begin here.
{"Molecule": "CN(C)[C@@H]1CCN(CCCOc2ccc(-c3ccc(C#N)cc3)cc2)C1", "pKi": 7.92}
{"Molecule": "C[C@@]1(O)CCN(CCCOc2ccc(-c3ccc(C#N)cc3)cc2)C1", "pKi": 7.82}

I: CC(C)C1(O)CCN(CCCOc2ccc(-c3ccc(C#N)cc3)cc2)C1 (stereo not shown)
II: O=C(c1ccc(OCCCN2CC[C@@H](O)C2)cc1)C1CC1
# compare pKi for I vs II ; return the one with the smaller value Answer with the label corresponding to your selection. I
